- Test system: SK-OV-3 ovarian
- Protocol Notes: NCI-60 one-dose screen, 48 h (100 = growth as untreated, 0 = no growth, -100 = all killed)
- Experimental Setup: 10 µM
This is part of a sample that, as a whole, favours compounds with a hit. Of some 83,000 tested, about 20% had one in any assay.
Readout Label: growth (%)

line_notation=COc1cc2nc(Nc3cccc(C(=O)O)c3)nc(N)c2cc1OC readout_label=growth result=107
line_notation=CCOC(=O)N1C/C(=C/c2ccc(F)cc2)C(=O)/C(=C/c2ccc(F)cc2)C1 readout_label=growth result=12.7
line_notation=N=C(N)c1ccc(-c2ccc(-c3cccs3)s2)cc1 readout_label=growth result=65.9
line_notation=CC(=O)c1nc2ccccc2n1CCNC(N)=O readout_label=growth result=91.5
line_notation=CCOC(=O)C(=Cc1ccc(Br)cc1)C(=O)OCC readout_label=growth result=34
line_notation=CC/C(C)=C(\C)C(=O)O readout_label=growth result=91.9

====

As shown below, each of these compounds has a reported growth value.
- Tested on: OVCAR-3 ovarian
- Protocol Notes: NCI-60 one-dose screen, 48 h (100 = growth as untreated, 0 = no growth, -100 = all killed)
- Experimental Setup: 10 µM
This is part of a sample that, as a whole, favours compounds with a hit. Of some 83,000 tested, about 20% had one in any assay.
Readout Label: growth (%)

compound="Nc1c(C(=O)Nc2cccc(Br)c2)sc2nc3c(cc12)C(O)CCC3 (stereo unspecified)" result=-18.2
compound="S=C1SCC(c2ccccc2)S1 (stereo unspecified)" result=121
compound=Nc1c(C(=O)Nc2cccc3ccccc23)sc2nc3c(cc12)C(=O)CCC3 result=-26.7
compound=Cc1cc(Cc2cc(C)c(O)c(C)c2)cc(C)c1O result=28.2
compound=Cc1cccc(Cl)c1NC(=O)c1ccc2nc(NC(=O)NC3CCN(C)CC3)sc2c1 result=116
compound="CC1CN(Cc2ccccc2)C(=O)NC1=O (stereo unspecified)" result=135

====

- System: UO-31 renal
- Protocol Notes: NCI-60 one-dose screen, 48 h
- Experimental Setup: 10 µM
About 83,000 compounds went through this panel and 20% of them were active in at least one assay; those are over-represented in the sample as a whole. Calls of active or inactive are those of the source. The calls were made as follows: active = growth percent below 10; inactive = the rest.
Outcome codes: active, inactive

compound=COc1cc(/C(=C2/O[C@@H]([C@H]3COC(C)(C)O3)[C@H]3OC(C)(C)O[C@@H]23)c2ccc3ccccc3c2)cc(OC)c1OC assigned_category=inactive
compound=O=C(Nc1cccc(-n2cc(-c3ccncc3)c(-c3ccc(O)c(Cl)c3)n2)c1)c1ccc(Cl)c(Cl)c1 assigned_category=inactive
compound="COc1cc(C2CC(c3ccc(Nc4ccnc5cc(Cl)ccc45)cc3)=NN2c2ccc(Cl)cc2)cc(OC)c1OC (stereo unspecified)" assigned_category=inactive
compound=O=C(/C=C/c1cc2ccccc2[nH]c1=O)c1ccc2c(c1)OCO2 assigned_category=inactive
compound="CCN1CCCC1CNC(=O)c1ncc(-c2ccc(C(F)(F)F)cc2)c(NC2CCCCCC2)n1 (stereo unspecified)" assigned_category=inactive
compound=CCN(CC)CCNc1ccc(CO)c2oc3cc(Cl)ccc3c(=O)c12 assigned_category=inactive
compound=COc1ccc2c(c1OC)O/C(=C\c1ncc([N+](=O)[O-])n1C)C2=O assigned_category=active
compound=C#Cc1ccc(-n2c(/C=C/c3cc(OC)cc(OC)c3)nc3ncccc3c2=O)cc1 assigned_category=inactive
compound=CCN(CCCCCCN1CC(=O)N(CCCCCCN(CC)Cc2ccccc2OC)CC1=O)Cc1ccccc1OC assigned_category=inactive
compound=CC(=O)c1cc(Cl)ccc1O assigned_category=inactive
compound=COc1ccc2c(c1)C(=O)c1c-2c(OCCN2CCCCC2)nc2ccc(OC)cc12 assigned_category=active
compound=ClCCOCCn1cnc2c(Cl)nc(Cl)nc21 assigned_category=inactive
compound=O=C(Nc1ccncc1)C(=O)c1cn(S(=O)(=O)c2ccc(F)cc2)c2ccccc12 assigned_category=inactive
compound=COc1ccc(-c2nn(-c3cccc(NC(=O)c4ccc(Cl)c(Cl)c4)c3)cc2-c2ccncc2)cc1Cl assigned_category=inactive
compound="CCN(CC)CCCC(C)Nc1nc(-c2ccc(OC)cc2)nc2cc(Cl)ccc12 (stereo unspecified)" assigned_category=inactive
compound="C=C1c2c(C)nn(-c3ccc(OC)cc3)c2N(C)C23C[C@@H]1C1(C)c4c(C)nn(-c5ccc(OC)cc5)c4N(C)C(C)(C[C@H]12)C3 (stereo partly specified)" assigned_category=inactive
compound=COc1ccc(/C(=C2/O[C@@H]([C@H]3COC(C)(C)O3)[C@H]3OC(C)(C)O[C@@H]23)c2cc(OC)c(OC)c(OC)c2)cc1O assigned_category=inactive
compound=NC(=O)c1ccc(-c2cccc3c(=O)nc(N4CCOCC4)oc23)cc1 assigned_category=inactive
compound=C#Cc1ccc(-n2c(/C=C/c3ccc4ccccc4c3)nc3ncccc3c2=O)cc1 assigned_category=inactive
compound=COc1ccc(Oc2nc(NC3CCCC3)nc(Sc3ccc(OC)cc3)n2)cc1 assigned_category=inactive
compound=COc1cc(Cl)cc(-c2nn(-c3cccc(NC(=O)Nc4cc(C(F)(F)F)cc(C(F)(F)F)c4)c3)cc2-c2ccncc2)c1 assigned_category=active
compound=O=c1c2ccccc2nc(SCCN2CCCCC2)n1CCc1ccccc1 assigned_category=inactive
compound=c1ccc(CNc2ncnc3scc(-c4cccs4)c23)nc1 assigned_category=inactive
compound=CC(C)(C)NC/C(=C\c1ccccc1)C(=O)c1ccccc1 assigned_category=active
compound=Oc1[nH]c2ccc(Cl)cc2c1/C=c1/ccc2c(c1)N=C(c1cccs1)N=2 assigned_category=inactive
compound="CCCC(F)C(=O)O (stereo unspecified)" assigned_category=inactive
compound=O=C(Nc1cccc(-n2cc(-c3ccncc3)c(-c3ccc(O)c(Cl)c3)n2)c1)c1cccc(C(F)(F)F)c1 assigned_category=inactive
compound=COc1cc(-c2nnc(-c3c(-c4ccc(F)cc4)nc4ccccn34)o2)cc(OC)c1OC assigned_category=inactive
compound=CCn1cc(C(=O)O)c(=O)c2cnc(N3CCCC3)nc21 assigned_category=inactive
compound=CCOC(=O)CNC(=O)CCCCSc1ncnc2nc[nH]c12 assigned_category=inactive
compound=CCN1Cc2c(/C=C/c3ccccc3)nc3ccc(OC)cc3c2N(c2cccc(Cl)c2)C1 assigned_category=inactive
compound=CCCCCCCCCCCCCCCCCC(=O)OCCCCCCC assigned_category=inactive
compound=Cc1ccc(NC(=O)NC2CCCCC2)cc1 assigned_category=inactive
compound=NC(=O)CC1(c2ccccc2)CCCCC1 assigned_category=inactive
compound="COc1ccc2nc3cc(Cl)ccc3c(NCCNCC(C)O)c2c1 (stereo unspecified)" assigned_category=inactive
compound=Cc1cc2ccccc2nc1-c1ccccc1F assigned_category=inactive
compound=COc1ccc(NC(=O)CSc2nc3ccccc3c(=O)n2CCc2ccccc2)cc1 assigned_category=inactive
compound=Clc1ccccc1N=Cc1ccc2c(c1)OCO2 assigned_category=inactive
compound="CCOC(=O)CCC(NC(=O)c1ccc(N)cc1)C(=O)OCC (stereo unspecified)" assigned_category=inactive
compound=COc1ccc(/C=C/C(=O)Nc2ccc(-c3nc4ccc(OC)cc4s3)cc2)cc1 assigned_category=inactive
compound=CS(=O)(=O)Nc1cccc(-c2cc(-c3ccccc3Cl)c(C#N)c(N)n2)c1 assigned_category=inactive
